Reference for the values: patent US4005096A

Reported values of LD50 for individual entries
Assay: acute toxicity (LD50 Mouse), Litchfield and Wilcoxon
Settings: in vivo, iv
Where a name gives a salt, the structure may show the parent alone.

| compound | LD50, mg/kg |
| --- | --- |
| COc1ccccc1OCCNCc1ncccc1O.Cl.Cl | 55.6 |
| COc1ccccc1OCCNCc1ccccn1 [Compound D, HCl] | 51 |
| COc1ccccc1OCCNCc1cccnc1 [Compound C, HCl] | 73.3 |
| Cc1cccnc1CNCCOc1ccccc1C#N [Compound J, hydrate] | 73.3 |
| Clc1ccccc1OCCNCCc1ccncc1 [Compound G, dioxalate dihydrate] | 71.7 |
| Cc1cccnc1CNCCOc1ccccc1Cl [Compound H, hydrate] | 50 |
| COc1ccccc1OCCNCc1ccncc1 [Compound E, HCl] | 90.1 |
| COc1ccccc1OCCNCCc1ccncc1 [Compound A, HCl] | 53.5 |
| COc1ccccc1OCCNCCc1ccccn1 [Compound B, HCl] | 31.5 |
